Listed next: entries and their corresponding TGI.
System: SNB-19 CNS
protocol: NCI tumour cell line growth inhibition, 48 h

Guide cases for TGI, answers given:
Request the reported TGI associated with O=C(CCCCCCSc1nc(-c2ccccc2)cc(-c2ccccc2)n1)NO
11.3 µM

Request the reported TGI associated with [C-]#[O+].[C-]#[O+].[C-]#[O+].[C-]#[O+].[Ir].[Ir].[O-]c1ccc2ccccc2c1C=Nc1ccc(N=Cc2c([O-])ccc3ccccc23)cc1
> 100 µM

Request the reported TGI associated with FC(F)(F)C(C1=NC(C(F)(F)F)(C(F)(F)F)N=C(N2CCOCC2)O1)C(F)(F)F
> 100 µM

---
Request the reported TGI associated with COc1ccc2oc(=O)cc(C)c2c1
> 100 µM

Request the reported TGI associated with Cc1cc(C)c2c(c1)Nc1ccccc1P2c1ccccc1 (stereo not given)
83.9 µM

Request the reported TGI associated with O=C(O)CCC(NC(=O)c1ccc(Nc2cnc3ccc(C(F)(F)F)cc3n2)cc1)C(=O)O (stereo not given)
> 100 µM

Request the reported TGI associated with CCN(CCNc1ccc(C)c2sc3cc(Cl)ccc3c(=O)c12)CC(C)O (stereo not given)
3.66 µM

Request the reported TGI associated with C=CCNCCCN1C(=O)c2ccc3c4c(ccc(c24)C1=O)C(=O)N(CCCNCC=C)C3=O
1.96 µM

Request the reported TGI associated with N#Cc1c(N)nc(N2CCOCC2)c(C#N)c1-c1ccc(Cl)cc1
> 100 µM

Request the reported TGI associated with NNC(=O)CCC(=O)Nc1cc(Cl)c(Cl)cc1Cl
> 100 µM

Request the reported TGI associated with O=C(/C=C/c1ccc(Cl)c(Cl)c1)c1ccc(F)cc1
32.7 µM

Request the reported TGI associated with COC(=O)C1CC=C(SC(=O)c2ccccc2)N1C(=O)c1ccccc1 (stereo not given)
> 100 µM

Request the reported TGI associated with COc1ccc(C2C3CCc4ccccc4C3=NN2S(=O)(=O)c2ccc(Cl)cc2)cc1 (stereo not given)
> 100 µM

Request the reported TGI associated with C=C1CC2(C[C@@H](c3ccccc3)O[C@@H](c3ccccc3)C2)OC1=O (stereo not given in full)
29.7 µM

Request the reported TGI associated with CCc1cccc2c3c(sc12)C(c1ccc(Cl)cc1)C(C#N)=C(N)O3 (stereo not given)
12.1 µM

Request the reported TGI associated with CC(=O)OC1COC(n2nc(/C=C/c3ccc(Cl)cc3)c(=O)n(/N=C/c3ccccc3)c2=S)C(OC(C)=O)C1OC(C)=O (stereo not given)
> 100 µM

###

Test system: IGROV1 ovarian
protocol: NCI tumour cell line growth inhibition, 48 h
Listed next: entries and their corresponding TGI.

Guide cases for TGI, answers given:
Request the reported TGI associated with CCn1c2ccccc2c2ccc3c(c21)C(=O)c1ccccc1C3=O
> 100 µM

Request the reported TGI associated with COc1ccc2oc(=O)cc(C)c2c1
> 100 µM

---
Request the reported TGI associated with NC(=O)NO
> 2020 µM

Request the reported TGI associated with COc1ccccc1N1C(Cl)C(=O)C1c1c[nH]c2ccccc12 (configuration not stated)
> 100 µM

Request the reported TGI associated with COc1ccc(-c2cnnn2-c2cc(OC)c3c(c2)OCO3)cc1
> 100 µM

Request the reported TGI associated with CC(/C(=N/NC(=O)C(N)=O)c1c(Cl)ccc(Cl)c1O)C1(O)C(=O)Nc2ccccc21 (configuration not stated)
> 100 µM

Request the reported TGI associated with O=c1[nH]c(=O)n(COCCO)c2ccc(Br)cc12
> 100 µM

Request the reported TGI associated with O=C(CCCCCCSc1nc(-c2ccccc2)cc(-c2ccccc2)n1)NO
10.3 µM

Request the reported TGI associated with COC(=O)C1CC=C(SC(=O)c2ccccc2)N1C(=O)c1ccccc1 (configuration not stated)
> 100 µM

Request the reported TGI associated with COc1ccc2cc1Oc1ccc(cc1)C[C@@H]1c3cc(c(OC)cc3CCN1C)Oc1c(OC)c(OC)cc3c1[C@@H](C2)N(C)CC3
40.8 µM

Request the reported TGI associated with CCCc1c(O)c(=O)c2c(OC)cc(OC)c3c4c(OC)cc(OC)c5c(=O)c(O)c(CCC)c(c1c23)c54
3.97 µM

Request the reported TGI associated with O=C(N/N=C/c1ccc([N+](=O)[O-])cc1)c1cccc2nc3ccccc3nc12
> 100 µM

Request the reported TGI associated with C/C(=N\Nc1ccccc1Br)c1cccc(/C(C)=N/Nc2ccccc2Br)n1
> 100 µM

Request the reported TGI associated with O=Cc1cn(Cc2cccc(Cl)c2)c2ccccc12
14.7 µM

Request the reported TGI associated with Cc1ccc2c(c1C)-c1c(ccc(C)c1C)C(=O)C2=O
4.75 µM

Request the reported TGI associated with O=C(Cn1cc(F)c(=O)[nH]c1=O)C12CC3CC(CC(C3)C1)C2
> 100 µM

Request the reported TGI associated with COc1ccn2c(C(C)=O)cc(C(=O)c3ccc4c(c3)Sc3ccccc3N4)c2c1
> 100 µM

###

System: OVCAR-3 ovarian
protocol: NCI tumour cell line growth inhibition, 48 h
Listed next: entries and their corresponding TGI.
Expressed in µM, but write only the number.

Request the reported TGI associated with COC(=O)c1cc(-c2cc(OC)c(OC)c(OC)c2)[nH]c1N/N=C/c1c(Cl)cccc1Cl
3.02

---
Request the reported TGI associated with NC(=O)c1oc([N+](=O)[O-])c(-c2ccccc2)c1-c1ccccc1
22.7

Request the reported TGI associated with COc1ccc(C/C(C)=C(\c2ccc(OCCN3CCOCC3)cc2)c2ccc(OC(=O)Cc3ccccc3)cc2)cc1
1.66

Request the reported TGI associated with NC(=O)c1cc([N+](=O)[O-])c(Cl)c([N+](=O)[O-])c1
3.51

###

Listed next: entries and their corresponding TGI.
Test system: A549 NSCLC
protocol: NCI tumour cell line growth inhibition, 48 h

Missing value: TGI, A549 NSCLC, entry C=C1C(=O)OC2C1CC[C@H](C)C13OC(=O)CC1[C@@]23C (stereo partly specified) . Fill in?
> 100 µM

Missing value: TGI, A549 NSCLC, entry O=C1CC(c2ccc3c(c2)OCO3)Nc2cc3c(cc21)OCO3 (stereo unspecified) . Fill in?
> 100 µM

---
Missing value: TGI, A549 NSCLC, entry O/N=C/c1cc2c(cc1Br)OCO2 . Fill in?
> 100 µM

Missing value: TGI, A549 NSCLC, entry c1cc(CSP234N5CCN2CCN3CCN4CC5)ccc1CSP123N4CCN1CCN2CCN3CC4 . Fill in?
> 100 µM

Missing value: TGI, A549 NSCLC, entry Cc1ccc(/C=C2/SC(Nc3nc(-c4nc(NC5=NC(=O)/C(=C\c6ccc(C)cc6)S5)sc4C)c(C)s3)=NC2=O)cc1 . Fill in?
> 36.6 µM

Missing value: TGI, A549 NSCLC, entry O=c1[nH]nc2ccccc2c1Cl . Fill in?
91.5 µM

Missing value: TGI, A549 NSCLC, entry CC(O)(/C=C/c1ccccc1)P(=O)(O)c1ccccc1 (stereo unspecified) . Fill in?
> 100 µM

Missing value: TGI, A549 NSCLC, entry Cc1cc(C)c2c(c1)Nc1ccccc1P2c1ccccc1 (stereo unspecified) . Fill in?
> 100 µM

Missing value: TGI, A549 NSCLC, entry COc1ccc(C(=O)c2sc(Nc3ccccc3)nc2N)cc1 . Fill in?
> 100 µM

Missing value: TGI, A549 NSCLC, entry CCc1cccc2c3c(sc12)C(c1ccc(Cl)cc1)C(C#N)=C(N)O3 (stereo unspecified) . Fill in?
12.9 µM

Missing value: TGI, A549 NSCLC, entry C[C@]12CC[C@@H]3c4ccc(O)cc4CC[C@H]3[C@@H]1CC[C@@H]2NS(=O)(=O)c1cccc(C(F)(F)F)c1 . Fill in?
12.8 µM

###

System: HS 578T breast
protocol: NCI tumour cell line growth inhibition, 48 h
quantity-name: TGI (µM)
Expressed in µM, but write only the number.

Guide cases for TGI, answers given:
Missing value: TGI, HS 578T breast, entry C[C@H]1[C@H](C)CC[C@]2(C(=O)N3CCN(C)CC3)CC[C@]3(C)C(=CC[C@@H]4[C@@]5(C)C/C(=C/c6cccnc6)C(=O)C(C)(C)[C@@H]5CC[C@]43C)[C@H]12 . Fill in?
5.4

Missing value: TGI, HS 578T breast, entry O=C(CCCCCCSc1nc(-c2ccccc2)cc(-c2ccccc2)n1)NO . Fill in?
14.5

Missing value: TGI, HS 578T breast, entry Cc1ccc2c(c1C)-c1c(ccc(C)c1C)C(=O)C2=O . Fill in?
5.76

---
Missing value: TGI, HS 578T breast, entry O=C1c2ccc3c4c5ccc(c24)C(=O)N1CCCOCCCCOCCCNCc1ccc(cc1)CNCCCOCCCCOCCCN(C3=O)C5=O . Fill in?
5.32
